The values you see were collected from patent US7429592B2.

measured.parameter: melting point

molecule="COc1ccc2cc(NC(=O)c3ccccc3NCc3ccnc(C#N)c3)c(=O)oc2c1 [Example 11]" result="165 to 167 °C"
molecule="Cn1ncc2ccc(NC(=O)c3ccccc3NCc3ccnc(C#N)c3)cc21 [Example 10]" result="155 to 158 °C"
molecule="COc1ccc2cc(NC(=O)c3ccccc3NCc3ccc(C#N)nc3)c(=O)oc2c1 [Example 6]" result="173.4 °C"
molecule="COc1ccc2cc(C)c(NC(=O)c3ccccc3NCc3ccnc(C#N)c3)nc2c1 [Example 12]" result="153 to 155 °C"
molecule="N#Cc1ccc(CNc2ccccc2C(=O)Nc2cc3ccccc3cn2)cn1 [Example 2]" result="173.8 °C"
molecule="N#Cc1ncccc1CNc1ccccc1C(=O)Nc1cc2ccccc2cn1 [Example 3]" result="233.4 °C (dec.)"
